Target: Thyrotropin receptor (Homo sapiens) (UniProt P16473)
Sequence (P16473 whole entry, looked up): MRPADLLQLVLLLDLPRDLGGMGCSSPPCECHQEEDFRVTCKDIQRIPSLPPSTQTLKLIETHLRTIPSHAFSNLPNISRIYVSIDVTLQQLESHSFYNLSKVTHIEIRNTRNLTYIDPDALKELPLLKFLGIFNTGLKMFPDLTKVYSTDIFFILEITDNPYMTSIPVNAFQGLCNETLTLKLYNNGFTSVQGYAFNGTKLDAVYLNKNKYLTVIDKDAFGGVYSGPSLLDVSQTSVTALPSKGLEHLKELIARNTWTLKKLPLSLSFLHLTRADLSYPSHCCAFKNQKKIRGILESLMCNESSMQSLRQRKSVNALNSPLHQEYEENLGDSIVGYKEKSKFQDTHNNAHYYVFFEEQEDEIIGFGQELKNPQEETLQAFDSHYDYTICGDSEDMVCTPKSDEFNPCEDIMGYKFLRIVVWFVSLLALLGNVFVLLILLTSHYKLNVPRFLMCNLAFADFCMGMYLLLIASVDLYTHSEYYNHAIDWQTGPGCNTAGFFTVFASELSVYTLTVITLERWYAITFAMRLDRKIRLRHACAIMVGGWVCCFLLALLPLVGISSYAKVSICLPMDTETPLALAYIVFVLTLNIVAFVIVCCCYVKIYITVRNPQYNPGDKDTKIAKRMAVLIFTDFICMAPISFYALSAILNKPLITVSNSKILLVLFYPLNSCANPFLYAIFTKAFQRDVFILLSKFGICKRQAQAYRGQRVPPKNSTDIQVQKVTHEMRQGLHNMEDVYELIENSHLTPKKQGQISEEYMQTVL
Experiment: qHTS assay to identify small molecule agonists of the thyroid stimulating hormone receptor (TSHR) signaling pathway (AID 1224843); also: nearly all actives have a fitted effect of over 45% in size
Settings: TSHR-HEK293 cells, cAMP HTRF, agonist mode, 30 min; series mostly up to 92.4 µM
Results filed as inconclusive are left out. Activity calls are given as the source filed them. Calls follow the shape of the full dose curve.
QUANTITY_NAME: activation

Answered examples (4):
| COMPOUND | VALUE_OBSERVED |
| --- | --- |
| CCN(CCCCOC(=O)c1ccc(OC)c(OC)c1)C(C)Cc1ccc(OC)cc1 (stereo unspecified) | inactive |
| COC(=O)/C=C/C(C)=C\C=C\C(C)=C\C=C\C=C(C)\C=C\C=C(C)\C=C\C(=O)O | inactive |
| O=C(O)c1ccccc1[N+](=O)[O-] | inactive |
| C=Cc1ccc(C=C)cc1 | inactive |

Turning now to a further compound:
What value of measured activation is listed for Cc1cc(SC2=C(O)C[C@@](CCc3ccc(N)cc3)(C(C)C)OC2=O)c(C(C)(C)C)cc1CO ? inactive
